Target: human NK1 receptor (Homo sapiens, UniProt P25103)
Construct: membrane suspension
Sequence (P25103 whole entry): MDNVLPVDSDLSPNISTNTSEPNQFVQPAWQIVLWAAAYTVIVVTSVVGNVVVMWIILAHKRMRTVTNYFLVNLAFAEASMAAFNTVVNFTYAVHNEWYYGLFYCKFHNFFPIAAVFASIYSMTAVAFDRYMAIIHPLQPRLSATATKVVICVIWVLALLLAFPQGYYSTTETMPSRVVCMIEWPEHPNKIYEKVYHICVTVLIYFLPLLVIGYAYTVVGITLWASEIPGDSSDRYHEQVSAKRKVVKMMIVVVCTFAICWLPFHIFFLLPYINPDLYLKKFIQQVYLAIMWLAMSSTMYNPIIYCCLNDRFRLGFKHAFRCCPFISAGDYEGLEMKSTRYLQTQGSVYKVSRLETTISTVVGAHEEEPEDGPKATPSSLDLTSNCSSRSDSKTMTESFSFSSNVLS
Assay: NK1 receptor binding assay, [3H]substance P displacement
Conditions: affinity to the NK-1 receptor; human NK1 receptors in CHO cells, [3H]substance P 0.6 nM
Structures can show the parent of a compound that is named as a salt.
readout.type: Ki (nM)

As a guide, the following entries are already answered.
COc1ccc2ccccc2c1CN1CCc2nncn2[C@@H](Cc2ccc(Cl)c(Cl)c2)C1=O :: 1.74
CN1CCCCC1c1nnc2n1C(Cc1ccc(Cl)c(Cl)c1)C(=O)N(Cc1cc(C(F)(F)F)cc(C(F)(F)F)c1)CC2 (racemic) :: 5.62
CCOc1ccc2ccccc2c1CN1CCC(=O)NC(Cc2ccc(Cl)c(Cl)c2)C1=O (racemic) :: 5.37
Cc1ccc2ccccc2c1CN1CCC(=O)N[C@@H](Cc2ccc(Cl)c(Cl)c2)C1=O :: 3.8
CN(C)Cc1nnc2n1C(Cc1ccc(Cl)c(Cl)c1)C(=O)N(Cc1cc(C(F)(F)F)cc(C(F)(F)F)c1)CC2 (racemic) :: 4.37

1 = O=C1C(Cc2ccc(Cl)c(Cl)c2)n2c(CCN3CCOCC3)nnc2CCN1Cc1cc(C(F)(F)F)cc(C(F)(F)F)c1 (racemic)
2 = O=C1C(Cc2ccc(Cl)c(Cl)c2)n2cnnc2CCN1Cc1cc(C(F)(F)F)cc(C(F)(F)F)c1 (racemic)
3 = CCCN=C1CCN(Cc2cc(C(F)(F)F)cc(C(F)(F)F)c2)C(=O)C(Cc2ccc(Cl)c(Cl)c2)N1 (racemic) [Example 26, hydrochloride]
Q: Rank items: key Ki, increasing. Write the labels in rank order as requested.
Ans: 2, 1, 3
